// provenance: ChEMBL document CHEMBL6114992

tested on: KG-1; assay: Antiproliferative activity against human KG-1 cells assessed as inhibition of cell growth incubated for 72 hrs by MTT assay; assay type: functional, cell-based; details: KG-1, 72 h
Strictly below 4 µM in IC50: label 1. Otherwise: label 0.

Please let me know if O=C(/C=C/c1csc2ccccc12)c1cnccn1 shows IC50 below 4 µM.
label 0

Please let me know if Cc1nccnc1C(=O)/C=C/c1ccc[nH]1 shows IC50 below 4 µM.
label 0

Please let me know if CCc1nccnc1C(=O)/C=C/c1ccc(N(CC)CC)cc1 shows IC50 below 4 µM.
label 0

Please let me know if CCc1nccnc1C(=O)/C=C/c1ccccc1[N+](=O)[O-] shows IC50 below 4 µM.
label 1

Please let me know if CCc1nccnc1C(=O)/C=C/c1ccc(Cl)cc1Cl shows IC50 below 4 µM.
label 0

Please let me know if Cc1nccnc1C(=O)/C=C/c1ccc(Br)cc1 shows IC50 below 4 µM.
label 0

Please let me know if CCc1nccnc1C(=O)/C=C/c1csc2ccccc12 shows IC50 below 4 µM.
label 0

Please let me know if CCc1nccnc1C(=O)/C=C/c1ccc(F)cc1 shows IC50 below 4 µM.
label 1

Please let me know if CCc1nccnc1C(=O)/C=C/c1ccccc1F shows IC50 below 4 µM.
label 1
